Quick reference: % degradation of peptides in 24 h when incubated with simulated intestinal fluid of the listed items.
Method Description: Stability of peptides in simulated intestinal fluid (pH 7.5)
Assay type: in vitro ADME
Experimental Parameters: simulated intestinal fluid, 24 h, 2 μM, pH 7.5
Where a SMILES comes first, the peptide text is derived from it. [ ]: non-standard residue; d: D form. ξ: configuration not given here. Arg(NO2) = N=C(NCCC[C@H](N)C(=O)O)N[N+](=O)[O-]; αMePhe(2,6-F2) = C[C@](N)(Cc1c(F)cccc1F)C(=O)O; ξαMePhe(2,6-F2) = CC(N)(Cc1c(F)cccc1F)C(=O)O; αMePhe(2-F) = C[C@](N)(Cc1ccccc1F)C(=O)O; ξαMePhe(2-F) = CC(N)(Cc1ccccc1F)C(=O)O; hArg = N=C(N)NCCCC[C@H](N)C(=O)O; hCit = NC(=O)NCCCC[C@H](N)C(=O)O; Cit = NC(=O)NCCC[C@H](N)C(=O)O; ξαMeF = CC(N)(Cc1ccccc1)C(=O)O; Nle = CCCC[C@H](N)C(=O)O; ξαMeP = CC1(C(=O)O)CCCN1; Ac5c = NC1(C(=O)O)CCCC1; Aib = CC(C)(N)C(=O)O
Reply with just the number (in %).

These recorded examples may help you get a feel for the data.
{"Compound": "CCCC[C@H](NC(=O)[C@H](CC(C)C)NC(=O)[C@H](CCC(N)=O)NC(=O)[C@@H](NC(=O)[C@H](CCC(=O)O)NC(=O)C(C)(C)NC(=O)[C@@H](NC(=O)C(C)(C)N)C(C)C)[C@@H](C)CC)C(=O)N[C@@H](Cc1c[nH]cn1)C(=O)N[C@@H](CCC(N)=O)C(=O)N[C@@H](CCCCNC(=N)N)C(=O)NC(C)(C)C(=O)N[C@@H](CCCCN)C(=O)NC(C)(Cc1ccccc1)C(N)=O (some centres unmarked) [Seq. ID. 10] (H-[Aib]V[Aib]EIQL[Nle]HQ[hArg][Aib]K[ξαMeF]-NH2)", "Test Value": 100}
{"Compound": "CCCC[C@H](NC(=O)[C@](C)(Cc1c(F)cccc1F)NC(=O)[C@H](CCC(N)=O)NC(=O)[C@@H](NC(=O)[C@H](CCC(=O)O)NC(=O)C(C)(C)NC(=O)[C@@H](NC(=O)C(C)(C)N)C(C)C)[C@@H](C)CC)C(=O)N[C@@H](Cc1c[nH]cn1)C(=O)N[C@@H](CCC(N)=O)C(=O)NC(C)(C)C(=O)NC(C)(C)C(=O)N[C@@H](CCCNC(N)=O)C(=O)N[C@@](C)(Cc1c(F)cccc1F)C(N)=O [Seq. ID. 550] (H-[Aib]V[Aib]EIQ[αMePhe(2,6-F2)][Nle]HQ[Aib][Aib][Cit][αMePhe(2,6-F2)]-NH2)", "Test Value": 50}
{"Compound": "CCCC[C@H](NC(=O)C(C)(Cc1ccccc1F)NC(=O)[C@H](CCC(N)=O)NC(=O)[C@@H](NC(=O)[C@H](CCC(=O)O)NC(=O)C(C)(C)NC(=O)[C@@H](NC(=O)C1(N)CCCC1)C(C)C)[C@@H](C)CC)C(=O)N[C@@H](Cc1c[nH]cn1)C(=O)N[C@@H](CCC(N)=O)C(=O)N[C@@H](CCCCNC(=N)N)C(=O)NC(C)(C)C(=O)N[C@@H](CCCNC(=N)N[N+](=O)[O-])C(=O)NC(C)(Cc1c(F)cccc1F)C(N)=O (some centres unmarked) [Seq. ID. 270] (H-[Ac5c]V[Aib]EIQ[ξαMePhe(2-F)][Nle]HQ[hArg][Aib][Arg(NO2)][ξαMePhe(2,6-F2)]-NH2)", "Test Value": 100}
{"Compound": "CCCC[C@H](NC(=O)C(C)(Cc1ccccc1F)NC(=O)[C@H](CCC(N)=O)NC(=O)[C@@H](NC(=O)[C@H](CCC(=O)O)NC(=O)C(C)(C)NC(=O)[C@@H](NC(=O)C(C)(C)N)C(C)C)[C@@H](C)CC)C(=O)N[C@@H](Cc1c[nH]cn1)C(=O)N[C@@H](CCC(N)=O)C(=O)N[C@@H](CCCCNC(=N)N)C(=O)NC(C)(C)C(=O)NC(C)(C)C(=O)NC(C)(Cc1c(F)cccc1F)C(N)=O (some centres unmarked) [Seq. ID. 182] (H-[Aib]V[Aib]EIQ[ξαMePhe(2-F)][Nle]HQ[hArg][Aib][Aib][ξαMePhe(2,6-F2)]-NH2)", "Test Value": "00"}
{"Compound": "CCCC[C@H](NC(=O)C(C)(Cc1c(F)cccc1F)NC(=O)[C@H](CCC(N)=O)NC(=O)[C@@H](NC(=O)[C@H](CCC(=O)O)NC(=O)C(C)(C)NC(=O)[C@@H](NC(=O)C(C)(C)N)C(C)C)[C@@H](C)CC)C(=O)N[C@@H](Cc1c[nH]cn1)C(=O)N[C@@H](CCC(N)=O)C(=O)N[C@@H](CCCCNC(N)=O)C(=O)NC(C)(C)C(=O)NC(C)(C)C(=O)NC(C)(Cc1ccccc1F)C(N)=O (some centres unmarked) [Seq. ID. 430] (H-[Aib]V[Aib]EIQ[ξαMePhe(2,6-F2)][Nle]HQ[hCit][Aib][Aib][ξαMePhe(2-F)]-NH2)", "Test Value": "00"}

[in] Quick one: give measured % degradation of peptides in 24 h when incubated with simulated intestinal fluid for CCCC[C@H](NC(=O)[C@](C)(Cc1c(F)cccc1F)NC(=O)[C@H](CCC(N)=O)NC(=O)[C@@H](NC(=O)[C@H](CCC(=O)O)NC(=O)C(C)(C)NC(=O)[C@@H](NC(=O)C1(N)CCCC1)C(C)C)[C@@H](C)CC)C(=O)N[C@@H](Cc1c[nH]cn1)C(=O)N[C@@H](CCC(N)=O)C(=O)N[C@@H](CCCCNC(=N)N)C(=O)NC(C)(C)C(=O)N[C@@H](CCCCN)C(=O)N[C@@](C)(Cc1ccccc1F)C(N)=O [Seq. ID. 85] (H-[Ac5c]V[Aib]EIQ[αMePhe(2,6-F2)][Nle]HQ[hArg][Aib]K[αMePhe(2-F)]-NH2)
[out] 100

[in] Quick one: give measured % degradation of peptides in 24 h when incubated with simulated intestinal fluid for CCCC[C@H](NC(=O)C(C)(Cc1ccccc1F)NC(=O)[C@H](CCC(N)=O)NC(=O)[C@@H](NC(=O)[C@H](CCC(=O)O)NC(=O)C1(NC(=O)[C@@H](NC(=O)C2(N)CCCC2)C(C)C)CCCC1)[C@@H](C)CC)C(=O)N[C@@H](Cc1c[nH]cn1)C(=O)N[C@@H](CCC(N)=O)C(=O)N[C@@H](CCCCNC(=N)N)C(=O)N1CCCC1(C)C(=O)N[C@@H](CCCCN)C(=O)NC(C)(Cc1ccccc1)C(N)=O (some centres unmarked) [Seq. ID. 34] (H-[Ac5c]V[Ac5c]EIQ[ξαMePhe(2-F)][Nle]HQ[hArg][ξαMeP]K[ξαMeF]-NH2)
[out] 41

[in] Quick one: give measured % degradation of peptides in 24 h when incubated with simulated intestinal fluid for CCCCC(C)(NC(=O)[C@H](CC(C)C)NC(=O)[C@H](CCC(N)=O)NC(=O)[C@@H](NC(=O)[C@H](CCC(=O)O)NC(=O)C(C)(C)NC(=O)[C@@H](NC(=O)C1(NC(=O)[C@@H](N)C(C)C)CCCC1)C(C)C)[C@@H](C)CC)C(=O)N[C@@H](Cc1c[nH]cn1)C(=O)N[C@@H](CCC(N)=O)C(=O)N[C@@H](CCCCNC(=N)N)C(=O)N[C@@H](C)C(=O)N[C@@H](CCCCNC(=N)N)C(=O)NC(Cc1ccc(-c2ccc(OC)cc2CC)cc1)C(=O)NC(C)(CCCc1ccccc1)C(N)=O (single isomer, unassigned)
[out] 100
